These entries and their values trace back to patent US6476009B1.

- system-under-test: HTLV-III reverse transcriptase (Human immunodeficiency virus type 1 group M subtype B)
observed-property: IC50

In: Specify reported IC50 for the compound shown: O=C(O)P(=O)(O)O [foscarnet, trisodium phosphonoformate hexahydrate]
Out: 100 to 2000 nM
